- System: ATP;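 also: ATP exposure 15 min at 22 °C before imaging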
- assay-remarks: switch fluorescence ratio, 500 uM ATP over buffer (Cy3 cluster intensity, sum of 5 cycles each) (fold (ratio)); higher = stronger signal-on switching upon ATP binding; sequences stand for … in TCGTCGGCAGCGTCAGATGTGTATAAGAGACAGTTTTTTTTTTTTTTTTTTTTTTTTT…TC
- experimental-parameters: aptamer strand: ATP DNA aptamer (quencher-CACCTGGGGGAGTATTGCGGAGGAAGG + anchor), 100 nM annealed; ATP concentration: 500 uM
This section presents sequences with their documented switch fluorescence ratio values.

The examples below pair each entry with its known result.
>>> print(df.to_string())
   residue_codes            measured_metric  test_result
0      CGAGGGGGA  switch fluorescence ratio         1.01
1     CAGAGTCTGG  switch fluorescence ratio         1.04
2     GGTGTGGGAT  switch fluorescence ratio         1.01

Exercise: Entry under review: AATTGTTCGT . Reported switch fluorescence ratio?
Solution: 0.98

Exercise: Request: TTTGTTGCCA
Solution: 0.988

Exercise: Please answer likewise for GCAGCATGTG
Solution: 1.04

Exercise: Please give the result for AGGGAGGATT too.
Solution: 0.965

Exercise: Query GCTTATAATT next
Solution: 0.991

Exercise: Another sequence to look at: TGTATGAGCA
Solution: 1.02
